Answer each item with its documented CTG-3D luminescence at 96 h.
Tested on: HCI-011.E2 (organoid from an ER-positive breast cancer xenograft)
Experiment: CTG-3D luminescence at 96 h relative to day-0 seeding control (ratio to day 0); higher = more growth / less cytotoxicity; PDxO 3D drug screen, 96 h, CTG-3D normalised to day-0 seeding control.
Settings: 625 fM
Answers are plain numbers.

Known CTG-3D luminescence at 96 h results, listed for orientation:
{"molecule": "C[C@@H]1COCCN1c1cc(C2([S@](C)(=N)=O)CC2)nc(-c2cc[nH]c3nccc2-3)n1 [ceralasertib]", "system name": "HCI-011.E2", "observed result": 1.89}
{"molecule": "C[C@]12CC[C@@H]3c4ccc(O)cc4C[C@@H](CCCCCCCCC[S+]([O-])CCCC(F)(F)C(F)(F)F)[C@H]3[C@@H]1CC[C@@H]2O (stereo partly drawn) [fulvestrant]", "system name": "HCI-011.E2", "observed result": 1.62}

Give CTG-3D luminescence at 96 h for all molecules that follow.
1. CS(=O)(=O)c1ccc(C(=O)Nc2ccc(Cl)c(-c3ccccn3)c2)c(Cl)c1 [vismodegib]
2. Cc1nc(-c2cn3c(n2)-c2ccc(-c4cnn(C(C)(C)C(N)=O)c4)cc2OCC3)n(C(C)C)n1 [taselisib]
3. Cc1cc(Nc2ncc(Cl)c(Nc3ccccc3S(=O)(=O)C(C)C)n2)c(OC(C)C)cc1C1CCNCC1 [ceritinib]
4. CN(Cc1cnc2nc(N)nc(N)c2n1)c1ccc(C(=O)N[C@@H](CCC(=O)O)C(=O)O)cc1 [methotrexate]

[1.67, 1.51, 1.92, 1.59]

====

Test system: HCI-003.E2 (organoid from an ER-positive breast cancer xenograft)
Test: CTG-3D luminescence at 96 h relative to day-0 seeding control (ratio to day 0); higher = more growth / less cytotoxicity; PDxO 3D drug screen, 96 h, CTG-3D normalised to day-0 seeding control.
Conditions: 12.5 pM
quantity kind: CTG-3D luminescence at 96 h
Numbers only.

# map each compound to its CTG-3D luminescence at 96 h
1. O=C(O)C1(C(=O)O)CCC1.[NH2-].[NH2-].[Pt+2]
2. COc1cccc2c1C(=O)c1c(O)c3c(c(O)c1C2=O)C[C@@](O)(C(=O)CO)C[C@@H]3O[C@H]1C[C@H](N)[C@H](O)[C@H](C)O1
3. C[C@@H]1COCCN1c1cc(C2([S@](C)(=N)=O)CC2)nc(-c2cc[nH]c3nccc2-3)n1
4. CC(C)n1nc(-c2ccc3oc(N)nc3c2)c2c(N)ncnc21
5. CN(Cc1cnc2nc(N)nc(N)c2n1)c1ccc(C(=O)N[C@@H](CCC(=O)O)C(=O)O)cc1 [methotrexate]

[2.12, 2.13, 2.11, 2.24, 2.32]

====

Test system: HCI-010 (organoid from a breast cancer xenograft)
Test: CTG-3D luminescence at 96 h relative to day-0 seeding control (ratio to day 0); higher = more growth / less cytotoxicity; PDxO 3D drug screen, 96 h, CTG-3D normalised to day-0 seeding control.
Conditions: 10 µM; days in culture: 103
quantity kind: CTG-3D luminescence at 96 h
Answers are plain numbers.

{"molecule": "C=CCn1c(=O)c2cnc(Nc3ccc(N4CCN(C)CC4)cc3)nc2n1-c1cccc(C(C)(C)O)n1", "quantity kind": "CTG-3D luminescence at 96 h", "observed result": 0.459}
{"molecule": "CN(Cc1cnc2nc(N)nc(N)c2n1)c1ccc(C(=O)N[C@@H](CCC(=O)O)C(=O)O)cc1 [methotrexate]", "quantity kind": "CTG-3D luminescence at 96 h", "observed result": 2.1}
{"molecule": "C[C@]12CC[C@@H]3c4ccc(O)cc4C[C@@H](CCCCCCCCC[S+]([O-])CCCC(F)(F)C(F)(F)F)[C@H]3[C@@H]1CC[C@@H]2O (some centres undefined)", "quantity kind": "CTG-3D luminescence at 96 h", "observed result": 3.15}
{"molecule": "CCN(c1cc(C#CCN2CCOCC2)cc(C(=O)NCc2c(C)cc(C)[nH]c2=O)c1C)[C@H]1CC[C@H](N(C)CCOC)CC1", "quantity kind": "CTG-3D luminescence at 96 h", "observed result": 2.84}
{"molecule": "CNC(=O)c1cccc(-c2ccc3c(N4CCOC[C@@H]4C)nc(N4CCOC[C@@H]4C)nc3n2)c1", "quantity kind": "CTG-3D luminescence at 96 h", "observed result": 1.24}

Quick one: give me CTG-3D luminescence at 96 h for each item below, same order please.
1. C=CC(=O)N1CCC[C@@H](n2nc(-c3ccc(Oc4ccccc4)cc3)c3c(N)ncnc32)C1
2. O=C(O)C1(C(=O)O)CCC1.[NH2-].[NH2-].[Pt+2]
3. CC[C@H](NC(=O)[C@H](C)NC)C(=O)N1C[C@@H](O)C[C@H]1Cc1c(-c2[nH]c3cc(F)ccc3c2C[C@@H]2C[C@H](O)CN2C(=O)[C@H](CC)NC(=O)[C@H](C)NC)[nH]c2cc(F)ccc12
4. O=C(c1ccc(F)c(F)c1Nc1ccc(I)cc1F)N1CC(O)([C@@H]2CCCCN2)C1
5. C[C@@H]1COCCN1c1cc(C2([S@](C)(=N)=O)CC2)nc(-c2cc[nH]c3nccc2-3)n1
6. CCc1c2c(nc3ccc(O)cc13)-c1cc3c(c(=O)n1C2)COC(=O)[C@]3(O)CC
7. CC(C)(C(=O)NCC(F)(F)C(F)(F)F)C(=O)N[C@@H]1C(=O)Nc2ccccc2-c2ccccc21
8. C/C=C1\NC(=O)[C@H]2CSSCC/C=C/[C@H](CC(=O)N[C@H](C(C)C)C(=O)N2)OC(=O)[C@H](C(C)C)NC1=O

1.51
0.639
2.1
1.92
0.548
0.599
2.72
0.0082

Dear colleague, I am looking for the recorded CTG-3D luminescence at 96 h of the following molecule: `Cc1cc(Nc2ncnc3ccc(NC4=NC(C)(C)CO4)cc23)ccc1Oc1ccn2ncnc2c1`
2.84
